Source listed as PubChem BioAssay (NCI).

Listed here: items and their measured TGI.
- Test system: TK-10 renal
- assay-text: NCI tumour cell line growth inhibition, 48 h
quantity-name: TGI

* COC(=O)[C@@H]1N2C(=S)N(c3ccccc3)C(=O)[C@H]2SC1(C)C | > 100 µM
* Cc1cc(S(=O)(=O)Nc2nc(N)nc(N3N=CCC3C)n2)c(S)cc1Cl (stereo not drawn) | > 10 µM
* CC1=CSC2=NC(c3ccc(Cl)c(Cl)c3)=CC(c3ccc(Cl)cc3)N12 (stereo not drawn) | > 100 µM

----------
- Test system: KM12 colon
- assay-text: NCI tumour cell line growth inhibition, 48 h
quantity-name: GI50

- COc1cc(/C=C/c2cc(C(F)(F)F)[nH]c(=O)n2)ccc1OCc1ccccc1F: 11.8 µM
- CC1(C)C=CC[C@]2(C)[C@H]3CC[C@@H]4[C@H]5[C@H](C(=O)/C=C/c6cccnc6)CC[C@]5(CO)CC[C@@]4(C)[C@]3(C)CC[C@@H]12: 1.01 µM
- COc1cc(OC2OC(C)C(O)C(O)C2O)cc2oc(-c3ccc(O)cc3)c(CC=C(C)C)c(=O)c12 (stereo not drawn): 12.2 µM
